testedTarget: Genome polyprotein (Enterovirus A71)
Sequence (A0A1D8D5K2 whole entry): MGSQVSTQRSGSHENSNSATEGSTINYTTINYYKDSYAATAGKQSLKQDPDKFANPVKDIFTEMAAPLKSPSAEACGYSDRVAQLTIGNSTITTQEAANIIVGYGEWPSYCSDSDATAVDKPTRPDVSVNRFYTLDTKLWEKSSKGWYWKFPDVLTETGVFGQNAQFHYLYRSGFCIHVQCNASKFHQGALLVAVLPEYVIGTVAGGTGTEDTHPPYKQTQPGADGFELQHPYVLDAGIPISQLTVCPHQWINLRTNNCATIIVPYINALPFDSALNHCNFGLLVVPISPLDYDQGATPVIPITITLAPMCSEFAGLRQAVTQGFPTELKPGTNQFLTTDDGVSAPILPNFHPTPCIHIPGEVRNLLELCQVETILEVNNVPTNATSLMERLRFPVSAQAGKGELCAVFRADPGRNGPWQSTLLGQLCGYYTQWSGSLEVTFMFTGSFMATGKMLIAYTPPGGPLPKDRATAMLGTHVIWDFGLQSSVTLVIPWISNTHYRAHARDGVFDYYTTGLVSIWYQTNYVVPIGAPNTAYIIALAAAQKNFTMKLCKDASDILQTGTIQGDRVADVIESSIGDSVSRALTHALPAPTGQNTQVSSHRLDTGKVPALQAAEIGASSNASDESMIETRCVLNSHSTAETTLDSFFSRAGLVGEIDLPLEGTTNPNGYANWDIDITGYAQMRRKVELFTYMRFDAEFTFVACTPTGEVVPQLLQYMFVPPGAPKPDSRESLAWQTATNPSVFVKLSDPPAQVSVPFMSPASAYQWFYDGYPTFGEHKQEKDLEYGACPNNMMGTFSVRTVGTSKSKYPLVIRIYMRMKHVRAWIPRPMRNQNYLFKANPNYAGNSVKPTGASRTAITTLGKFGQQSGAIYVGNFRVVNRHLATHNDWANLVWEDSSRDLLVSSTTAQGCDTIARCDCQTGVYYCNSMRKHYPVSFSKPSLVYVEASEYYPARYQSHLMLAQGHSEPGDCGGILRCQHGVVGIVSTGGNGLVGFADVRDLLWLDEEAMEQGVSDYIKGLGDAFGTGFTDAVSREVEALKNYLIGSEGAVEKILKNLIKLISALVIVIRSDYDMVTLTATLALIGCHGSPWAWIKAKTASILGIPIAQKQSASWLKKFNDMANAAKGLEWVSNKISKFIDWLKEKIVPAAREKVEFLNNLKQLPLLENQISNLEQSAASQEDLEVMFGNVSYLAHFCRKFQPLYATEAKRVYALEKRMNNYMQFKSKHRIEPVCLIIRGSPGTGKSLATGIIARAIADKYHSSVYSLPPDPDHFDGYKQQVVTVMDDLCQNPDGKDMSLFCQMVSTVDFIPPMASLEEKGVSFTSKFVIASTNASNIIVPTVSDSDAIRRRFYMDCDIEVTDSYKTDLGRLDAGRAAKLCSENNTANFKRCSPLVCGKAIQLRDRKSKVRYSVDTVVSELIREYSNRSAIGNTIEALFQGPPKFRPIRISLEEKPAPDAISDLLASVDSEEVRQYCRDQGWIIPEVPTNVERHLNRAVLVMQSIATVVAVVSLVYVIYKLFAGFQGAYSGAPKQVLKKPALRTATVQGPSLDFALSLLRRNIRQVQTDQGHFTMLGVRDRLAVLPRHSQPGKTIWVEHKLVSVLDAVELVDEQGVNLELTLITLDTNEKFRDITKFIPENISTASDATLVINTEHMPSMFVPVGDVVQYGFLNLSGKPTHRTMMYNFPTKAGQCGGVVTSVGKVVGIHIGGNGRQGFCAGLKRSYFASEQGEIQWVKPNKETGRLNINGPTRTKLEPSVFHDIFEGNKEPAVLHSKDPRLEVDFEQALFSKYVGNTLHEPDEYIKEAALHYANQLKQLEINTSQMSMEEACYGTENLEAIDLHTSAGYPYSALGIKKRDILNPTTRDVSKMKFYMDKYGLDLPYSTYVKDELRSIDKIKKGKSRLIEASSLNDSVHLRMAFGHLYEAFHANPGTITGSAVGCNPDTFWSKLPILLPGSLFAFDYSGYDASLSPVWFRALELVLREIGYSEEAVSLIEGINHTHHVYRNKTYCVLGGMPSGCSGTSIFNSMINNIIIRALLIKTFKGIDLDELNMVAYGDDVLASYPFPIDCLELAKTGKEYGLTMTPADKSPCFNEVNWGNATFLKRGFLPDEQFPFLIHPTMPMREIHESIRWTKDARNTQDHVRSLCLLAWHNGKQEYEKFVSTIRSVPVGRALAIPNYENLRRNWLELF
Recorded Ki values for a group of compounds are listed next.
A number alone suffices; assume nM.

smilesData	resultNumber
CCCCNC(=O)O[C@H](C#N)[C@H](C[C@@H]1CCCNC1=O)NC(=O)[C@H](Cc1ccc(F)cc1)NC(=O)c1cc(C)on1	4780
CCNC(=O)O[C@H](C#N)[C@H](C[C@@H]1CCCNC1=O)NC(=O)[C@H](Cc1ccc(F)cc1)NC(=O)c1cc(C)on1	190
CCNC(=O)O[C@@H](C#N)[C@H](C[C@@H]1CCCNC1=O)NC(=O)[C@H](Cc1ccc(F)cc1)NC(=O)c1cc(C)on1	51
Cc1cc(C(=O)N[C@@H](Cc2ccc(F)cc2)C(=O)N[C@@H](C[C@@H]2CCCNC2=O)[C@@H](C#N)OC(=O)NC(C)C)no1	93

Please examine the following record next.
(Q) If you can, please state the reported Ki value of `CCN1C(=N)[C@H]([C@H](C[C@@H]2CCCNC2=O)NC(=O)[C@H](Cc2ccc(F)cc2)NC(=O)c2cc(C)on2)OC1=O` .
(A) 3530
